Each record here notes measured pEC50.
- System: L. amazonensis intracellular amastigotes
- Format: cell-based, Leishmania amazonensis
- condition.parameters: read-out: intracellular amastigotes, EC50 ± SE; L. amazonensis intracellular amastigotes in RAW 264.7 cells, 72 h, luciferase
Note on pEC50: it is the negative log10 of concentration, concentration in mol/L.

molecule | target.entity | assay.value
CCc1c(C)nc(-n2nc(C)cc2NC(=O)c2ccccc2SC)[nH]c1=O [MMV676477] | L. amazonensis intracellular amastigotes | 6.30

# ---- query molecule ----
Let me check: CCc1c(C)nc(-n2nc(C)cc2NC(=O)c2ccc(F)c(Cl)c2)[nH]c1=O [SW41] , system L. amazonensis intracellular amastigotes, measured pEC50 is 6.66
